The reported measurements were obtained from patent US20030224390A1.

tested_system: androgen receptor (Homo sapiens)
Sequence (P10275 1-920): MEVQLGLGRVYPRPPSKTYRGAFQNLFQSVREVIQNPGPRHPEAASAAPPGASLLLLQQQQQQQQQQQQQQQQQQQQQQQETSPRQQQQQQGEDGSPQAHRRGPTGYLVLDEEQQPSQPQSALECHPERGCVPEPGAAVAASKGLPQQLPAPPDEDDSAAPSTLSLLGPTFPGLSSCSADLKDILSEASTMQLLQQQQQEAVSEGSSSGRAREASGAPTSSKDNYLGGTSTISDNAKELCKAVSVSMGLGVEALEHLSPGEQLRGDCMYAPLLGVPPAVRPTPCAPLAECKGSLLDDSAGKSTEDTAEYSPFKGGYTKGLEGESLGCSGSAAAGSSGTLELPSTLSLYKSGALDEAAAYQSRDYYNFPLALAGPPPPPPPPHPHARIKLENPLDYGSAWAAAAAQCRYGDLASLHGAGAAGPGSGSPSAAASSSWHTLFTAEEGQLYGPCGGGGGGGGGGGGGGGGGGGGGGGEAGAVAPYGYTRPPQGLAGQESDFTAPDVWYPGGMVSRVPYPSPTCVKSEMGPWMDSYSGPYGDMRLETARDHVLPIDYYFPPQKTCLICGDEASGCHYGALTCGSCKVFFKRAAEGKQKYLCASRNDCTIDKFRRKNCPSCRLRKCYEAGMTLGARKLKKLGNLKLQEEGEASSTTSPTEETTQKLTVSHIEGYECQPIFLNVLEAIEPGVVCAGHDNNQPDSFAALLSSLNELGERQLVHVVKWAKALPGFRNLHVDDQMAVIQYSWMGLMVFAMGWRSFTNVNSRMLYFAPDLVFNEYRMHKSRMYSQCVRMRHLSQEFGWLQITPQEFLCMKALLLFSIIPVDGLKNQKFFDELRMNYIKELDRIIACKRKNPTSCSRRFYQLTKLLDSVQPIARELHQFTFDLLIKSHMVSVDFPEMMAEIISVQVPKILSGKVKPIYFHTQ
assay: Yeast two-hybrid screening of unbiased X15 peptide library, ligand induced β-galactosidase activity (FIG. 3, Table 503)
Type: cell-based
Parameters: expressed in transfected cells; host or cells: Saccharomyces cerevisiae PJ69-4α; unit not given here
assay_context: yeast two-hybrid, no ligand
# note: exactly 0.4 is not below, so it is no (0); use yes (1) for ligand induced β-galactosidase activity, No Lig strictly under it

• EFRSSVFEQMYLCTGGSLDLQPS* [B5G11] = no (0)
• EFRFPFHEMVREWESMGLERVRYAEP [M4D1] = yes (1)
• EFHSRLRVEVVSWGIGSTCSQANSGRISYDL* [B8H3] = yes (1)
• EFQQCMCAEVKSWLGGSLDLQPS* [B8E9] = no (0)
• EFPELLAMTRWGRHAALLEPQRLPPPRTTTQPQTEFERMFFFTRPMRTTGLLDLQPS [B2A7] = yes (1)

Data request: Record EFRQSFVSEILGGGWLPLDLOPS [M2H3] : is its ligand induced β-galactosidase activity, No Lig strictly below 0.4?
Data returned: no (0)

Data request: Record EFVNWDAVVPWSELVALLDLOPS [B8A10] : is its ligand induced β-galactosidase activity, No Lig strictly below 0.4?
Data returned: no (0)
